Below, each of the molecules is paired with its reported % DNMT1 protein level remaining at 5 µM value.
Molecular target: UniProt:P26358
Sequence (P26358 whole entry): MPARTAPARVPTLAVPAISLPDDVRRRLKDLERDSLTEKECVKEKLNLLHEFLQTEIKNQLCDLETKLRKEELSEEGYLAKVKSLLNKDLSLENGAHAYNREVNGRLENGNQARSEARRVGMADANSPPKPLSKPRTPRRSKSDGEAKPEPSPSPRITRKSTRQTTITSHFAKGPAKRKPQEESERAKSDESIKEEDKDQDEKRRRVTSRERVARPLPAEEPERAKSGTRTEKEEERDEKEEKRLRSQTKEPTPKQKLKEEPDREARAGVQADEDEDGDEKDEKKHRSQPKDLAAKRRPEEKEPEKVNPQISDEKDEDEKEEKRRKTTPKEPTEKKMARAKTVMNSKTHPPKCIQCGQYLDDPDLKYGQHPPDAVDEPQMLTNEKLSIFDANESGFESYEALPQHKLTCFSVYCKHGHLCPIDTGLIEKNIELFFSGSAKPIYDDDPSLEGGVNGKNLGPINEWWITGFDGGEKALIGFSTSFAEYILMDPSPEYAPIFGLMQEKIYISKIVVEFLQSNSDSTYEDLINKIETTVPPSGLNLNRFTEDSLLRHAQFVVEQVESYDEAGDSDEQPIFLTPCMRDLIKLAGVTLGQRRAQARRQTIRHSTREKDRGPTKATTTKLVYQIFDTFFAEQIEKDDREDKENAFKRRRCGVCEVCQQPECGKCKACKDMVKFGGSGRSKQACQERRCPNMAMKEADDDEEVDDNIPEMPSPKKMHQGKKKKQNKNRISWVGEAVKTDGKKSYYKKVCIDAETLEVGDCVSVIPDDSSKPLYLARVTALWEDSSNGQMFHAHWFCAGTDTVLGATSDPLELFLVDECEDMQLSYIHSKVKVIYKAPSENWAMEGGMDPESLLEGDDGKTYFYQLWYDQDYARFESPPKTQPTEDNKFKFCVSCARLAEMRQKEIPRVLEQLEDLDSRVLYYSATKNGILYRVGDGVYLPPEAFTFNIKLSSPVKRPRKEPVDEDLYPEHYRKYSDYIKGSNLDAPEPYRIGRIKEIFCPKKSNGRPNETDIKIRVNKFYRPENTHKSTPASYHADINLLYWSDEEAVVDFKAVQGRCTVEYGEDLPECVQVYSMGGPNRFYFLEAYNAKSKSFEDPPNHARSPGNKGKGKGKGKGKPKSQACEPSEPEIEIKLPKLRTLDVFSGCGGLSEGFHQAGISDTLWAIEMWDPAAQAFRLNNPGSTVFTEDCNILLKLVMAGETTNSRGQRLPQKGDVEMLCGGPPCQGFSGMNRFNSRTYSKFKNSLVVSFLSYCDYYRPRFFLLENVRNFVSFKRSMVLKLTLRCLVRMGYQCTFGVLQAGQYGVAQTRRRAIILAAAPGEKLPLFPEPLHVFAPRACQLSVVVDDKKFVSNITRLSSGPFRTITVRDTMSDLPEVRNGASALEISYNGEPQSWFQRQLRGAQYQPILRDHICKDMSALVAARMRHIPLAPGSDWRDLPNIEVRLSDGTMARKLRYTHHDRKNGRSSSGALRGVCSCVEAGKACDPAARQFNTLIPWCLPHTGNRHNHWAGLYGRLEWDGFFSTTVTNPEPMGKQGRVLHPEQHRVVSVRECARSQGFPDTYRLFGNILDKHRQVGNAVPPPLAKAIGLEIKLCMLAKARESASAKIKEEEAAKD
Assay: Selective depletion of DNMT1 by Western blot in treated HCT116 cells
Format: cell-based
Parameters: Protein extracts (equivalent to 100 μg) were isolated from HCT116 cells; endogenous in cells; host or cells: HCT116
Settings: HCT-116, 5 μM
Counter-ions that a name gives are not always drawn.
endpoint.label: % DNMT1 protein level remaining at 5 µM

In [3]: df
Out[3]:
                                    molecule  assayed_system  endpoint_result
 0  CN(C)c1ccc2nccc(Nc3ccc(NC(=O)c4cccc(Nc5cc[n+](C)cc5)c4)cc3)c2c1 [Cpd. OO1]  UniProt:P26358              25%
 1  C[n+]1ccc(Nc2ccc(NC(=O)c3ccc(Nc4ccnc5cc(N)ccc45)cc3)cc2)cc1 [Cpd. W]  UniProt:P26358              45%
 2  Nc1ncn([C@H]2C[C@H](O)[C@@H](CO)O2)c(=O)n1 [Decitabine, 5-aza-2′-deoxycytidine, reference compound]  UniProt:P26358          0 to 5%
 3  C/C(=N\N=C(N)N)c1cccc(NC(=O)c2ccc(Nc3ccnc4ccccc34)cc2)c1 [Cpd. JJ2, dihydrochloride]  UniProt:P26358             147%
 4  C[n+]1ccc(Nc2ccc(NC(=O)c3ccc(Nc4ccnc5ccc([N+](=O)[O-])cc45)cc3)cc2)cc1 [Cpd. G, hydrochloride]  UniProt:P26358              95%
 5  Cc1cc(Nc2cccc(C(=O)Nc3ccc(Nc4ccnc5ccccc45)cc3)c2)nc(N)n1 [Cpd. FF1, dihydrochloride]  UniProt:P26358              15%
 6  C[n+]1ccc(Nc2cccc(C(=O)Nc3ccc(Nc4ccnc5ccc(N)cc45)cc3)c2)cc1 [Cpd. M]  UniProt:P26358              30%
 7  Cc1cc(Nc2ccc(NC(=O)c3ccc(Nc4ccnc5ccc(Cl)cc45)cc3)cc2)nc(N)n1 [Cpd. LL]  UniProt:P26358              70%
 8  Cc1cc(Nc2ccc(C(=O)Nc3ccc(Nc4ccnc5ccc(N)cc45)cc3)cc2)nc(N)n1 [Cpd. GG3, dihydrochloride]  UniProt:P26358             110%
 9  C/C(=N\N=C(N)N)c1cccc(NC(=O)c2ccc(Nc3ccnc4ccc(N(C)C)cc34)cc2)c1 [Cpd. JJ1, dihydrochloride]  UniProt:P26358              75%
10  C/C(=N\N=C(N)N)c1ccc(C(=O)Nc2ccc(Nc3ccnc4ccc(N(C)C)cc34)cc2)cc1 [Cpd. PP, dihydrochloride]  UniProt:P26358              60%
11  Cc1cc(Nc2ccc(C(=O)Nc3ccc(Nc4ccnc5cc(N)ccc45)cc3)cc2)nc(N)n1 [Cpd. GG2, dihydrochloride]  UniProt:P26358              85%
12  CN(C)c1ccc2nccc(Nc3ccc(NC(=O)c4ccc(Nc5cc[n+](C)cc5)cc4)cc3)c2c1 [Cpd. OO2]  UniProt:P26358              50%
13  C/C(=N\N=C(N)N)c1ccc(NC(=O)c2ccc(Nc3ccnc4ccc([N+](=O)[O-])cc34)cc2)cc1 [Cpd. I, hydrochloride]  UniProt:P26358              27%
14  C/C(=N\N=C(N)N)c1cccc(C(=O)Nc2ccc(Nc3ccnc4ccc(N(C)C)cc34)cc2)c1 [Cpd. QQ]  UniProt:P26358              60%
15  C[n+]1ccc(Nc2cccc(NC(=O)c3ccc(Nc4ccnc5cc([N+](=O)[O-])ccc45)cc3)c2)cc1 [Cpd. R]  UniProt:P26358             160%
16  Cc1cc(Nc2ccc(NC(=O)c3ccc(Nc4ccnc5cc(N(C)C)ccc45)cc3)cc2)nc(N)n1 [Cpd. BB, hydrochloride]  UniProt:P26358             106%
17  C[n+]1ccc(Nc2cccc(NC(=O)c3ccc(Nc4ccnc5ccc(N)cc45)cc3)c2)cc1 [Cpd. K]  UniProt:P26358              98%
18  C[n+]1ccc(Nc2ccc(C(=O)Nc3ccc(Nc4ccnc5ccc(N)cc45)cc3)cc2)cc1 [Cpd. N]  UniProt:P26358             160%
19  C/C(=N\N=C(N)N)c1ccc(NC(=O)c2ccc(Nc3ccnc4ccc(N(C)C)cc34)cc2)cc1 [Cpd. NN, Dihydrochloride]  UniProt:P26358              70%
20  Cc1cc(Nc2ccc(NC(=O)c3ccc(Nc4ccnc5ccc([N+](=O)[O-])cc45)cc3)cc2)nc(N)n1 [Cpd. H, hydrochloride]  UniProt:P26358             132%
21  CN(C)c1ccc2nccc(Nc3ccc(C(=O)Nc4ccc(Nc5cc[n+](C)cc5)cc4)cc3)c2c1 [Cpd. O]  UniProt:P26358              84%
